The values you see were collected from PubChem BioAssay AID2685.

Assay: qHTS Assay for Lipid Storage Modulators in Drosophila S3 Cells;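 on cell number change: cells counted by Cell Tracker Red CMTPX staining in the red channel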
Details: BODIPY lipid droplet fluorescence, 18-24 h, cells fed with added oleic acid; measured here: cell count max response
Screen size: about 320,000 compounds; about 2,100 (0.66%) were called active. Inconclusive results (about 53%) are left out. What follows is part of a selection rich in actives, with near analogues and random picks from the rest.
metric: cell number change (%)
Only the number, expressed in %, is required.

The compound Cc1ccc(N=Nc2c(O)c3ccccc3[nH]c2=O)c(S(=O)(=O)N(C)C)c1 showed cell number change equal to 7.5

Record summary for CC1CCN(Cc2nnnn2-c2ccc(Cl)cc2)CC1 : reported cell number change = -6.07

The compound listed as CCO[C@@H]1OC(C(=O)NCc2nc3ccccc3[nH]2)=C[C@H](C)[C@H]1CCCO has a reported cell number change of -18.5

Entry COc1ccc2sc(-c3ccccc3OC)c(C#CCCO)c2c1 — recorded cell number change = -1.81

Input O=C(c1ccc(CS(=O)c2cccc(Cl)c2)o1)N1CCOCC1 (stereo unspecified) . Output cell number change: -42.8

According to the records, this compound O=C(CSc1nc2ccccc2[nH]1)NCC1CCCO1 (stereo unspecified) displays cell number change of 1.54

Value of cell number change reported for the compound O=C(N[C@@H](CO)C(=O)NCc1ccccc1)c1ccc(C(F)(F)F)cc1 is 23.3

Record Oc1ccc(Br)cc1-c1cc(-c2ccccc2Cl)[nH]n1 , field cell number change: -23.2

So for CCOC1=C/C(=C/c2c(N)n3nc(CC(=O)N4CCCC4)sc3nc2=O)C=CC1=O , the logged cell number change turned out to be -5.2

Query O=C(c1ccc(CS(=O)c2cccc(Cl)c2)o1)N1CCCCCC1 (stereo unspecified) yields cell number change of -0.885

Kindly note the recorded cell number change for c1ccc(-n2nnnc2CN2CCOCC2)cc1 , which is -7

Item: COc1ccc(/C=C(\NC(=O)c2ccc(OC)cc2)C(=O)Nc2ccc(C(=O)O)cc2)cc1 | cell number change: 11.1

Form field cell number change, entry O=C(c1ccc(CS(=O)c2cccc(Cl)c2)o1)N1CCN(c2ccccn2)CC1 (stereo unspecified) : -26.2

Kindly note the recorded cell number change for CCC(C)(C)NC(=O)C(c1ccccc1Cl)N(C(=O)CCC(=O)Nc1cc(C)on1)C1CC1 (stereo unspecified) , which is 10.4

// cell number change lookup, compound = O=C(OCc1cc(Cl)ccc1OC(F)F)c1cccnc1 , result: 13.9

For this compound ( CC(C)c1ccccc1NC(=O)c1ccc2ncsc2c1 ), measured cell number change is 3.81

* * *

Assay: qHTS Assay for Lipid Storage Modulators in Drosophila S3 Cells
Conditions: BODIPY lipid droplet fluorescence, 18-24 h, cells fed with added oleic acid; series mostly up to 46.1 µM
In all, about 320,000 compounds went through this assay and about 2,100 (0.66%) were called active. Not shown: some 53% with an inconclusive outcome. Calls follow the shape of the dose curve; as a rule, active = well fitted inhibition curve with a large enough effect in the signal ratio, with a control signal flat (not every such curve was filed as active); inconclusive = small, poorly fitted or top-dose-only effect, or effect the other way, or a change in a side signal; inactive = flat fitted curve, though single readings scatter; the % refers to the signal ratio. What follows is part of a selection rich in actives, with near analogues and random picks from the rest.
Pick one: yes (1) (active), no (0) (inactive)

# outcome recorded in this test, key = COc1ccccc1CN(C)C(=O)C(c1ccccc1)c1ccccc1 yes (1)

Dear colleague, could you share the recorded outcome for COc1ccc([N+](=O)[O-])cc1NCC(=O)Nc1cc(S(=O)(=O)N2CCCCC2)ccc1C when you have a moment? yes (1)

Check the results log: what was the call for O=C(NCCN1CCOCC1)c1cccn2c(=O)c3c4c(sc3nc12)CCCC4 ? no (0)

# outcome recorded in this test, key = O=C(CCN1c2ccccc2Sc2ccccc21)Oc1ccccc1 no (0)

// return assay outcome for C=CCOc1cccc(C2C(C(=O)c3ccco3)=C(O)C(=O)N2Cc2cccnc2)c1 (stereo not given) no (0)

Give the logged outcome of this assay for the following molecule: CC(C)C[C@H](NC(=O)NCc1ccc(Cl)cc1)C(=O)O yes (1)

Test call for this molecule, please: CCOc1ccccc1NC(=O)CSc1nnc(CCC(=O)Nc2ccccc2F)n1C no (0)

What outcome does the record of this test show for O=C(Nc1cccc(C(=O)Nc2cccc(Br)c2)c1)c1ccccc1 ? yes (1)

Called result for COc1ccc(OC)c(NS(=O)(=O)c2ccc(Cl)nc2)c1 no (0)

Entry O=C(Nc1cccc(Br)c1)c1ccc(CSc2ccccc2)cc1 : call = ? no (0)

Entry Cc1ccccc1N=C1N=C(N)c2ccccc21 : call = ? no (0)

Outcome logged for CC(C)(C)C(=O)N1CCN(c2ccc(NC(=O)c3ccc4c(c3)OCCO4)cc2)CC1 in this assay: yes (1)

Status in this test for O=C(CCc1c[nH]c2ccccc12)N1CCCCCCC1 ? no (0)

Called result for CCOCCCNC(=O)C1CCCN1C(=O)NC1CCCCC1 (stereo not given) yes (1)

Which result was noted for this molecule in the test: O=C(CNc1cccc(S(=O)(=O)N2CCCC2)c1)Nc1ccc(F)c(F)c1 no (0)

So what was the verdict on CN1C(=O)/C(=C/c2cc(C(C)(C)C)c(O)c(C(C)(C)C)c2)NC1=S in this test? no (0)

Any idea what this test logged for CCN(CC#CCC(O)(c1ccccc1)c1ccccc1)C(C)C ? no (0)

// outcome(item) with item = COc1cccc(C(=O)Nc2ccc3ccccc3c2)c1 no (0)

Would you mind telling me which call this test gave CCN(CC)S(=O)(=O)c1cc(NC(=O)CNc2cccc(S(=O)(=O)N3CCOCC3)c2)ccc1C ? yes (1)

Recorded test outcome, item O=C(Nc1ccc(C2CC2(Cl)Cl)cc1)c1cccc([N+](=O)[O-])c1 (stereo not given) yes (1)

Dear all, I need the recorded test outcome for O=C(CNc1cccc(S(=O)(=O)N2CCOCC2)c1)Nc1ccccc1F , thank you. no (0)

For this molecule, state the assay outcome: CC12CC(c3ccccc3O1)C(C(=O)N1CCOCC1)C(=O)N2 (stereo not given) no (0)

Please let me know the test result on file for COc1ccc(S(=O)(=O)N2CCCCC2)cc1NC(=O)CNc1ccc(F)cc1C . no (0)

Record lookup: outcome of this test for COc1ccc(S(=O)(=O)N2CCCCC2)cc1NCC(=O)Nc1ccc(C)cc1 ? no (0)

Name the outcome recorded for Nc1ccccc1-c1ccccc1N in the assay. no (0)

Could you check what this test reported for COc1cccc(C(=O)Nc2cccc(-c3ccccc3)c2)c1 ? yes (1)

Short answer needed: outcome of this test for CC(C)[C@H](NC(=O)NCc1ccc(Cl)cc1)C(=O)O ? no (0)

Outcome logged for O=C(Nc1ccc(NC(=O)c2cccc([N+](=O)[O-])c2)cc1)c1cccc([N+](=O)[O-])c1 in this assay: no (0)

What classification did O=C(NC(NC(=S)Nc1ccc(Cl)cc1Cl)C(Cl)(Cl)Cl)c1cccc([N+](=O)[O-])c1 (stereo not given) end up with in this test? no (0)

Which outcome was assigned to COc1cc(NC(=O)CNc2ccc(Cl)c(S(=O)(=O)N3CCOCC3)c2)cc(OC)c1 in this test? no (0)

For CC12CC(c3ccccc3O1)C(C(=O)NCc1ccccc1)C(=O)N2 (stereo not given) , which call appears in the assay record? yes (1)

Identify the outcome logged in this assay for the molecule shown: COc1cccc(-c2cc(C(=O)Nc3ccc4c(c3)OCCO4)c3ccccc3n2)c1 no (0)

What outcome does the record of this test show for COc1ccccc1CNC(=O)C(c1ccccc1)c1ccccc1 ? no (0)

Dear colleague, could you share the recorded outcome for Cc1ccc(NC(=O)CNc2cccc(S(=O)(=O)N3CCCCC3)c2)cc1F when you have a moment? yes (1)

Field: outcome | Entry: COc1ccccc1CN(C)C(=O)CN1C(=O)c2ccccc2C1=O no (0)

* * *

Experiment: qHTS Assay for Lipid Storage Modulators in Drosophila S3 Cells; further: potency means the concentration at half of the fitted maximal effect
Conditions: BODIPY lipid droplet fluorescence, 18-24 h, cells fed with added oleic acid; series mostly up to 46.1 µM
The whole screen tested about 320,000 compounds, of which about 2,100 (0.66%) were called active. Another 53% or so got no clear call; they are omitted. For the sample, actives were picked, then their nearest neighbours and some compounds at random.
metric: Potency

Worked examples follow.
>  <molecule>
Cc1cc(C)c(OCC(=O)Nc2nc(-c3ccccn3)cs2)c(C)c1

>  <metric>
Potency

>  <value>
inactive

$$$$
>  <molecule>
Cc1ccc(OCC(O)CN2CCN(CCO)CC2)c(C)c1 (stereo not drawn)

>  <metric>
Potency

>  <value>
inactive

$$$$
>  <molecule>
CCOC(=O)CSc1ncnc2c1cnn2-c1ccc(Cl)cc1

>  <metric>
Potency

>  <value>
184 nM (active)

$$$$
>  <molecule>
O=[N+]([O-])c1cc2c(cc1Br)CCN2

>  <metric>
Potency

>  <value>
inactive

$$$$
>  <molecule>
COc1ccc(CCNC(=O)COc2ccc(S(=O)(=O)NC(C)C)cc2Cl)cc1OC

>  <metric>
Potency

>  <value>
inactive

$$$$
>  <molecule>
COc1ccc(C(CCN(Cc2ccc(OC)c(OC)c2)C(C)=O)C(C)C)cc1 (stereo not drawn)

>  <metric>
Potency

>  <value>
820 nM (active)

$$$$

Input CCNS(=O)(=O)c1ccc(Br)c(OC)c1 . Output Potency: 25900 nM (active)

// Potency value for O=C(NCC1CCCO1)C1CCN(C2CCN(C(=O)Cc3ccsc3)CC2)CC1 (stereo not drawn) : inactive
